- system.tested: SALL4 ZFC4 WT (HT-SELEX) (Mus musculus, UniProt Q8BX22 870-940)
- Sequence: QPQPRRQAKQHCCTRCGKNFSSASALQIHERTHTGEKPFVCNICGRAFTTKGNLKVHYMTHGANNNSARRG
- experiment.summary: HT-SELEX; high values mean tight binding
- settings: protein: recombinant; vector His6-GST; dsDNA, one strand shown
endpoint.name: binding signal (fold-change vs cycle 0)
One number for each entry, in fold-change vs cycle 0.

Below, 5 sequences whose answers are already recorded.
   sequence_chain  quantitative_readout
0          CACTGA                 0.799
1          AGACCG                  0.32
2          AAGGAT                  1.54
3          AGTTAA                  1.95
4          ACAATC                  1.25

Batch request: binding signal for each of the following sequences.
1. AGACAT
2. CCATGA
3. ACAAGG
4. AGAACC
5. AAATCT

1.29
0.874
0.796
0.8
1.82

Quick one: binding signal of AGGTAA ?
1.45
